These measurements were taken from patent US20250027035A1.

# Tested on: Rossellomorea oryzaecorticis ZC255
# method-summary: Drug sensitivity test of strains (antibiotic tolerance); further: key: R: resistance; S: sensitivity; I: betweenness
# Type: cell-based
measurement-kind: Results of drug sensitivity test of strains

• CC[C@H]1OC(=O)[C@H](C)[C@@H](O[C@H]2C[C@@](C)(OC)[C@@H](O)[C@H](C)O2)[C@H](C)[C@@H](O[C@@H]2O[C@H](C)C[C@H](N(C)C)[C@H]2O)[C@](C)(OC)C[C@@H](C)C(=O)[C@H](C)[C@@H](O)[C@]1(C)O = S
• CO/N=C(\C(=O)N[C@@H]1C(=O)N2C(C(=O)O)=C(COC(C)=O)CS[C@H]12)c1csc(N)n1 = I
• CO/N=C(\C(=O)N[C@@H]1C(=O)N2C(C(=O)O)=C(CSc3nc(=O)c(=O)[nH]n3C)CS[C@H]12)c1csc(N)n1 = R
• NC[C@H]1O[C@H](O[C@H]2[C@H](O)[C@@H](O[C@H]3O[C@H](CO)[C@@H](O)[C@H](N)[C@H]3O)[C@H](N)C[C@@H]2N)[C@H](O)[C@@H](O)[C@@H]1O = R

Then this compound:
Incoming: GET /values?readout=Results of drug sensitivity test of strains&item= NC[C@H]1O[C@H](O[C@H]2[C@H](O)[C@@H](O[C@H]3O[C@H](CO)[C@@H](O)[C@H](N)[C@H]3O)[C@H](N)C[C@@H]2N)[C@H](N)C[C@@H]1O
Outgoing: R

====

# Tested on: Rossellomorea oryzaecorticis ZC255
# method-summary: Drug sensitivity test of strains (antibiotic tolerance); further: key: R: resistance; S: sensitivity; I: betweenness
# Type: cell-based
measurement-kind: Results of drug sensitivity test of strains

* CN[C@H](CC(C)C)C(=O)N[C@H]1C(=O)N[C@@H](CC(N)=O)C(=O)N[C@H]2C(=O)N[C@H]3C(=O)N[C@H](C(=O)N[C@H](C(=O)O)c4cc(O)cc(O)c4-c4cc3ccc4O)[C@H](O)c3ccc(c(Cl)c3)Oc3cc2cc(c3O[C@@H]2O[C@H](CO)[C@@H](O)[C@H](O)[C@H]2O[C@H]2C[C@](C)(N)[C@H](O)[C@H](C)O2)Oc2ccc(cc2Cl)[C@H]1O | S
* CCC[C@@H]1C[C@@H](C(=O)N[C@@H]([C@H]2O[C@H](SC)[C@H](O)[C@@H](O)[C@H]2O)[C@@H](C)O)N(C)C1 | R
* O=C(N[C@H](CO)[C@H](O)c1ccc([N+](=O)[O-])cc1)C(Cl)Cl | S

====

# System: Rossellomorea oryzaecorticis ZC255
# method-summary: Drug sensitivity test of strains (antibiotic tolerance); further: key: R: resistance; S: sensitivity; I: betweenness
# Type: cell-based
measurement-kind: Results of drug sensitivity test of strains

- CC[C@H]1OC(=O)[C@H](C)[C@@H](O[C@H]2C[C@@](C)(OC)[C@@H](O)[C@H](C)O2)[C@H](C)[C@@H](O[C@@H]2O[C@H](C)C[C@H](N(C)C)[C@H]2O)[C@](C)(O)C[C@@H](C)C(=O)[C@H](C)[C@@H](O)[C@]1(C)O: R
- CCn1cc(C(=O)O)c(=O)c2cc(F)c(N3CCNCC3)cc21: R
- CC1(C)S[C@@H]2[C@H](NC(=O)C(C(=O)O)c3ccccc3)C(=O)N2[C@H]1C(=O)O (stereo partly drawn): S
